Target: CDK2/Cyclin E complex (Homo sapiens, UniProt P24941)
Assay: CDK2/Cyclin E fluorescence-based microfluidic mobility shift assay (CDK2 Biochemical Caliper Assay)
Details: read-out: Biochemical CDK2/CyclinE Caliper IC50
Description: Compounds of the present disclosure were tested in a CDK2/Cyclin E fluorescence-based microfluidic mobility shift assay (PerkinElmer). The active wild type CDK2/Cyclin E complex was purchased from Eurofins (14-475). Compound stocks were prepared in DMSO and were serially diluted into 11 concentrations by 3-fold dilution. […] The final reaction components were 0.1 nM CDK2/Cyclin E, 2000 uM ATP and 1.5 uM FL Peptide 18 and 1% DMSO. […] Samples were analyzed using a LabChip EZ reader (PerkinElmer).
MEASUREMENT TYPE: IC50

CC1(NC(=O)O[C@H]2CO[C@@H](c3cc(Nc4nccc5nccn45)n[nH]3)C2)CC1 [Example 735] : ≤ 100 nM
COC(=O)c1cnc(C)cc1Nc1cc(C2CCCC2)[nH]n1 [Example 803] : 1000 to 100000 nM
Cn1nc(OC(F)(F)F)cc1C(=O)Nc1cc([C@H]2C[C@@H](OC(=O)NC3(C)CC3)CO2)[nH]n1 [Example 787] : ≤ 100 nM

Q: Find the recorded IC50 belonging to COCc1cc(C(=O)Nc2cc([C@@H]3CC[C@@H](c4cnc(C)cn4)C3)[nH]n2)n(C)n1 (single isomer, unassigned) [Example 578] and report it.
A: 1000 to 100000 nM

###

# maps each entry to its IC50
Biological target: CDK2/Cyclin E complex (Homo sapiens, UniProt P24941)
Experiment: CDK2/Cyclin E fluorescence-based microfluidic mobility shift assay (CDK2 Biochemical Caliper Assay)
Conditions: read-out: Biochemical CDK2/CyclinE Caliper IC50

Solved entries (count: 3):
COCc1cc(C(=O)Nc2cc([C@H]3CC[C@@H](Oc4ncccc4C(C)C)C3)[nH]n2)n(C)n1 (single isomer, unassigned) : ≤ 100 nM
COCc1cc2c(Nc3cc([C@H]4C[C@@H](Oc5nn(C)cc5C(C)(C)C)CO4)[nH]n3)nccn2n1 : 1000 to 100000 nM
COCc1cc(C(=O)Nc2cc([C@H]3CC[C@@H](Cc4ncc(C)s4)C3)[nH]n2)n(C)n1 (single isomer, unassigned) : 1000 to 100000 nM

Q: Consider the compound shown here: CC(C)NC(=O)OC[C@H]1C[C@@H](c2cc(Nc3ccc4c(n3)C(C)(C)NC4=O)n[nH]2)C1 What is its recorded IC50?
A: ≤ 100 nM

Q: Consider the compound shown here: CC(C)c1ccnnc1O[C@@H]1CO[C@H](c2cc(Nc3nccn4nccc34)n[nH]2)C1 What is its recorded IC50?
A: ≤ 100 nM

Q: Entry under review: COCc1cc(C(=O)Nc2cc([C@H]3CC[C@@H](Oc4c(C)ccnc4C)C3)[nH]n2)n(C)n1 (single isomer, unassigned) . Reported IC50?
A: 1000 to 100000 nM

###

Item-by-item account of pIC50
Target: CDK2/Cyclin E complex (Homo sapiens, UniProt P24941)
Experiment: CDK2/Cyclin E fluorescence-based microfluidic mobility shift assay (CDK2 Biochemical Caliper Assay)
Details: read-out: Biochemical CDK2/CyclinE Caliper IC50
pIC50: −log10 of the molar value.

Observe how each entry below is paired with its result.
Cc1ncccc1OC[C@H]1C[C@H](c2cc(Nc3nccn4nccc34)n[nH]2)C1 : 4.00 to 6.00
CCCCOc1ccc(Nc2cc(C3CCCC3)[nH]n2)nc1 : 4.00 to 6.00
CC(C)NC(=O)O[C@@H]1CC[C@H](c2cc(Nc3cncc(OCCO)n3)n[nH]2)C1 (single isomer, unassigned) : ≥ 7.00

Q: Fill in: pIC50 of CCc1ccnnc1O[C@H]1CC[C@@H](c2cc(NC(=O)c3cc(COC)nn3C)n[nH]2)C1 (single isomer, unassigned) is ___
A: ≥ 7.00

###

Listing: pIC50 of selected compounds
Biological target: CDK2/Cyclin E complex (Homo sapiens)
Assay: CDK2/Cyclin E fluorescence-based microfluidic mobility shift assay (CDK2 Biochemical Caliper Assay)
Settings: read-out: Biochemical CDK2/CyclinE Caliper IC50
pIC50: −log10 of the molar value.

Example compounds with recorded pIC50:
COCc1cc(C(=O)Nc2cc(N3CC(COC(=O)NC(C)C)C3)[nH]n2)n(C)n1 [Example 558] : 4.00 to 6.00
COCc1cc(C(=O)Nc2cc([C@@H]3CC[C@H](c4ccc(C)[nH]c4=O)C3)[nH]n2)n(C)n1 (single isomer, unassigned) [Example 543] : 4.00 to 6.00
Cn1nc(COC(F)F)cc1C(=O)Nc1cc([C@H]2C[C@@H](OC(=O)NC3(C)CC3)CO2)[nH]n1 [Example 753] : ≥ 7.00

Q: Query: pIC50; subject: Cc1cc(CC(=O)Nc2cc([C@H]3C[C@@H](COc4nscc4C4CC4)C3)[nH]n2)on1 [Example 368]
A: ≥ 7.00

Q: Reported pIC50 for CNS(=O)(=O)N[C@H]1CC[C@@H](c2cc(NC(=O)Cc3cc(C)no3)n[nH]2)C1 (single isomer, unassigned) [Example 146] : what is it?
A: 4.00 to 6.00

Q: Which pIC50 is reported for this compound? COCc1cc(C(=O)Nc2cc([C@H]3C[C@H](COc4nscc4C4CC4)C3)[nH]n2)n(C)n1 [Example 455]
A: 4.00 to 6.00

Q: GET /values?readout=pIC50&item= COCc1cc2c(Nc3cc([C@H]4CC[C@@H](Oc5cccnc5C)C4)[nH]n3)nccn2n1 (single isomer, unassigned) [Example 511]
A: 4.00 to 6.00

###

Measured IC50 by item
Target: CDK2/Cyclin E complex (Homo sapiens, UniProt P24941)
Assay: CDK2/Cyclin E fluorescence-based microfluidic mobility shift assay (CDK2 Biochemical Caliper Assay)
Conditions: read-out: Biochemical CDK2/CyclinE Caliper IC50

COCc1cc2c(Nc3cc([C@H]4C[C@@H](OC(=O)N[C@H]5C[C@@H]5C)CO4)[nH]n3)nccn2n1 : ≤ 100 nM
CC1(NC(=O)O[C@H]2CO[C@@H](c3cc(Nc4nccn5nc(C6CC6)cc45)n[nH]3)C2)CC1 : ≤ 100 nM
Cc1cc(CC(=O)Nc2cc([C@@H]3CC[C@H](n4cc(C(C)C)[nH]c4=O)C3)[nH]n2)on1 (single isomer, unassigned) : 1000 to 100000 nM

Moving on to another molecule below.
Q: Would you kindly share the measured IC50 for COCc1cc2c(Nc3cc([C@H]4C[C@@H](OC(=O)NC5(CC(F)(F)F)CC5)CO4)[nH]n3)nccn2n1 ?
A: ≤ 100 nM

###

Target: CDK2/Cyclin E complex (Homo sapiens)
Experiment: CDK2/Cyclin E fluorescence-based microfluidic mobility shift assay (CDK2 Biochemical Caliper Assay)
Settings: read-out: Biochemical CDK2/CyclinE Caliper IC50
pIC50: −log10 of the molar value.
Each record here notes measured pIC50.

Examples from the recorded data:
COCc1cc2c(Nc3cc([C@@H]4C[C@H](OC(=O)NC5(C)CC5)CO4)[nH]n3)nccn2n1 : ≥ 7.00
CC(C)c1ccnnc1O[C@H]1CC[C@@H](c2cc(Nc3nccc4ncsc34)n[nH]2)CC1 : ≥ 7.00
Cc1cc(CC(=O)Nc2cc([C@@H]3CC[C@H](Oc4cnccc4C4CC4)C3)[nH]n2)on1 (single isomer, unassigned) : 6.00 to 6.60
COCc1cc2c(Nc3cc([C@@H]4C[C@H](Oc5nncn5C(C)C)CO4)[nH]n3)nccn2n1 : ≥ 7.00
COCc1cc(C(=O)Nc2cc([C@H]3CC[C@H](c4ccc(C)[nH]c4=O)C3)[nH]n2)n(C)n1 (racemic) : 4.00 to 6.00

Q: Using the record for O=c1ccc2nc(Nc3cc(C4CCCC4)[nH]n3)ccc2[nH]1 , report its pIC50.
A: 4.00 to 6.00

###

Target: CDK2/Cyclin E complex (Homo sapiens, UniProt P24941)
Experiment: CDK2/Cyclin E fluorescence-based microfluidic mobility shift assay (CDK2 Biochemical Caliper Assay)
Settings: read-out: Biochemical CDK2/CyclinE Caliper IC50
Experimental: Compounds of the present disclosure were tested in a CDK2/Cyclin E fluorescence-based microfluidic mobility shift assay (PerkinElmer). The active wild type CDK2/Cyclin E complex was purchased from Eurofins (14-475). Compound stocks were prepared in DMSO and were serially diluted into 11 concentrations by 3-fold dilution. […] The final reaction components were 0.1 nM CDK2/Cyclin E, 2000 uM ATP and 1.5 uM FL Peptide 18 and 1% DMSO. […] Samples were analyzed using a LabChip EZ reader (PerkinElmer).
pIC50: −log10 of the molar value.
MEASUREMENT TYPE: pIC50

Cc1cc(CC(=O)Nc2cc([C@H]3CC[C@H](Cc4nncn4C(C)C)C3)[nH]n2)on1 (single isomer, unassigned) : 6.60 to 7.00
CC1(C)NC(=O)c2ccc(Nc3cc([C@H]4C[C@@H](OC(=O)NC56CC(C5)C6)CO4)[nH]n3)nc21 : ≥ 7.00
COCc1cc(C(=O)Nc2cc([C@H]3C[C@@H](COc4cn(C)nc4C(C)(C)C)C3)[nH]n2)n(C)n1 : 6.60 to 7.00
COCc1cc(C(=O)Nc2cc([C@H]3C[C@@H](COc4nnccc4C(C)C)C3)[nH]n2)n(C)n1 : ≥ 7.00

Q: Using the record for CC(C)NC(=O)O[C@@H]1CC[C@H](c2cc(Nc3nccn4nccc34)n[nH]2)C1 (single isomer, unassigned) , report its pIC50.
A: ≥ 7.00

Q: Reported pIC50, compound COCc1cc(C(=O)Nc2cc([C@@H]3C[C@H](Oc4nnccc4C(C)C)CO3)[nH]n2)n(C)n1 : ____
A: ≥ 7.00

Q: Endpoint output: pIC50 of Cc1cc(CC(=O)Nc2cc([C@@H]3CC[C@H](OC(=O)[C@@H](N)C(C)C)C3)[nH]n2)on1 (single isomer, unassigned) . Value?
A: 6.00 to 6.60

Q: Given the entry Cc1cc(CC(=O)Nc2cc([C@H]3CC[C@@H](Oc4nnccc4C(C)C)C3)[nH]n2)on1 (single isomer, unassigned) , report its measured pIC50.
A: ≥ 7.00

Q: If you can, please state the reported pIC50 value of Cc1cc(CC(=O)Nc2cc([C@@H]3CC[C@H](Cc4nncn4C(C)C)C3)[nH]n2)on1 (single isomer, unassigned) .
A: 4.00 to 6.00

Q: Consider the compound shown here: COCC1(NC(=O)O[C@H]2CO[C@@H](c3cc(NC(=O)c4cc(COC(F)(F)F)nn4C)n[nH]3)C2)CC1 What is its recorded pIC50?
A: ≥ 7.00

Q: Name the recorded pIC50 for COCc1nc2ccnc(Nc3cc([C@H]4C[C@@H](OC(=O)NC(C)C)CO4)[nH]n3)c2s1 (single isomer, unassigned) .
A: 6.60 to 7.00

Q: Requested field: pIC50. Item: COCc1nc2cc(Nc3cc([C@H]4CC[C@@H](OC(=O)NC(C)C)C4)[nH]n3)ncc2s1 (single isomer, unassigned)
A: 6.00 to 6.60

Q: Entry under review: COCc1cc2c(Nc3cc([C@H]4C[C@@H](Oc5nncn5C(C)(C)C)CO4)[nH]n3)nccn2n1 . Reported pIC50?
A: ≥ 7.00

Origin of measurements: patent US20240190855A1
